Provenance of the data: the nanobody polyreactivity screen of Harvey et al. (2022)

test: yeast display, Sf9 membrane polyspecificity reagent, FACS + sequencing; frameworks hold sequencing errors
MEASURED_PARAMETER: polyreactivity (PSR sort gate)

{"CONSTRUCT_SEQUENCE": "QVQLVESGGGLVQAGGSLRLSCAASGRIFVGYTMGWYRQAPGKERELVASISWSGASTYYADSVKGRFTISRDNAKNTVYLQMNSLKPEDTAVYYCAARYYKYYNSYDYWGQGTQVTVSS", "polyreactivity (PSR sort gate)": "high polyreactivity"}
{"CONSTRUCT_SEQUENCE": "QVQLVESVGGLVQAGGSLRLICAASGSIFYPNAMGWYRQAPGKERELVAAISYSGTSTNYADSVKGRFTISRDNAKNTVYLQMNSLKPEDTAVYYCAARGFPHRRHSLYDYWGQGTQVTVSS", "polyreactivity (PSR sort gate)": "low polyreactivity"}
{"CONSTRUCT_SEQUENCE": "QVQLVESGGGLVQAGGSLRLSCAASGITFPLYAMGWYRKAPGKERELVATISGRGGSTYYADYVKGRFTISRDNAKNTVYLQMNSLIPEDTAVYYCNADFRSPYFLLSWYHSGDYWGLGTQVTVSS", "polyreactivity (PSR sort gate)": "low polyreactivity"}
{"CONSTRUCT_SEQUENCE": "QVQLVESGGGLVQAGGSLRLICAASGSIFQPYAMGWYRQAPGKERELVAAINGRGGSTHYADSVKGRFTISRDNAKNTVYLQMNSLKPEDTAVYYCAARYYRDYRWYTYAYDYWGQGTQVTVSS", "polyreactivity (PSR sort gate)": "high polyreactivity"}
{"CONSTRUCT_SEQUENCE": "QVQLVESGGGLVQAGGSHRLSCAASGSIFTRNVMGWYRQAPGKERELVAAITSAGSTYYADSVKGRFTISRDNAKNNVYLQMTSLNPEDTAVYNCDAKVYYPYLFTSYDYWGQGTQVTVSS", "polyreactivity (PSR sort gate)": "high polyreactivity"}

I am curious: what polyreactivity (PSR sort gate) value has been reported for `QVQLVESGGGLVQAGGSLRLSCAASGIIFGRYAMGWYRQAPGKERELVAAISARGGSTYYADSVKGRFTISRDNAKNTVYLHMNSLKPEDTAVYYCAARAVYTQKRYDSWGQGTQVTVSS` ?
high polyreactivity

I am curious: what polyreactivity (PSR sort gate) value has been reported for `QVQLVESGGGLVQAGGSLRLSCAASGSTFDAYAMGWYRPAPGTERELVAGISTSGGSTYYADSVKGRFTISRDNAKYTVVLQMNSMIPEVYAVYYCGAGVFRYVDRYGDMEYWGQGTQVTVSS` ?
low polyreactivity

----------
assay: yeast display, Sf9 membrane polyspecificity reagent, FACS + sequencing; frameworks hold sequencing errors
MEASURED_PARAMETER: polyreactivity (PSR sort gate)

Solved cases (4 shown):
{"CONSTRUCT_SEQUENCE": "QVQLVESGGGLDQAGGSLRLTCAASGITFTQYAMGWYRQAPGKEREFVAGITFSGSSTYYADSVKGRFTISRDNAKNTVYLQMNSLKPEDTAVYYCAAESWYKYIYGYPRLFDYWGQATQVTVSS", "MEASURED_PARAMETER": "polyreactivity (PSR sort gate)", "VALUE": "low polyreactivity"}
{"CONSTRUCT_SEQUENCE": "QVQLVESGGGLVQAGGSLRLSCAASGHFFFYYTMGWYRPAPGKERELVAGITIGGSTNYADSVKGRFTISRDNAKHTVYVQMNSLKPEDTPVYYCNVVKYVYIYSYWEYYYCGQGTQVTVSS", "MEASURED_PARAMETER": "polyreactivity (PSR sort gate)", "VALUE": "low polyreactivity"}
{"CONSTRUCT_SEQUENCE": "QVQLVESGGGLVQAGGSLRLSCAASGRIFQGYAMGWYRQAPGKERELVASIRTGGTTNYADSVKGRFTISRDNAKNTVYLQMTRLKPEDNAVYYCNSGYYSYYGRYYYWGQGTQVTVSS", "MEASURED_PARAMETER": "polyreactivity (PSR sort gate)", "VALUE": "high polyreactivity"}
{"CONSTRUCT_SEQUENCE": "QVQLVETGGGLVQAGGSLRLSCAASGSISPINAMGWYRQPPGKERELVAAINGGGSTYYADSVKGRFTISRDNAKNTVYLQMNSLKPEDTAVYYCSRDALHYAGSLHRYGYWGQGTQVTLSS", "MEASURED_PARAMETER": "polyreactivity (PSR sort gate)", "VALUE": "low polyreactivity"}

--- query ---
I am curious: what polyreactivity (PSR sort gate) value has been reported for `QVQLVESVGGLVQAGGSLRLSCPASGINFWNYAMGRYRQAPGKERELVAVISRGGSTYYADSVKGRFTISRDNAKNTVYLQMNSLKPEDNAVYYCAADSVVWEMEYWGQGTLVTVSS` ?
high polyreactivity

----------
assay: yeast display, Sf9 membrane polyspecificity reagent, FACS + sequencing; frameworks hold sequencing errors

{"CONSTRUCT_SEQUENCE": "QVQLVESGGGLVQAGGSLRLSCAASGNTFYVNAMGWYRQAPGKERELVATISKRGSSTYYADSVKGRFTISRDNAKNTVFLQMNSLKPEDTAVYYCNAEGPSYYYIIYDYWGQGTQVTVSS", "polyreactivity (PSR sort gate)": "high polyreactivity"}
{"CONSTRUCT_SEQUENCE": "QVQLVESGGGLVQAGGSLRLSCAASGSIFDVNAMGWYRQAPGIERDLVAAISQRGTRTYYADSVKGRFTISRDNAKNTVYLQMNSLKPEDTAVYYCAARVPSVGNQSGYDYWGQGTQVTVSS", "polyreactivity (PSR sort gate)": "high polyreactivity"}
{"CONSTRUCT_SEQUENCE": "QVQLVESGGGLVQAGGSLRLSCAASGSIFIVNAMGWYRQAPGKERELVAAITWSGGNTYYADSVKGRFTISRDNAKNTVYLQMNSLKPEDTAVYYCNSYWRGAFDYWGQGTQVTVSS", "polyreactivity (PSR sort gate)": "high polyreactivity"}
{"CONSTRUCT_SEQUENCE": "QVQLVESGGGLVQAGGSLRLSCAASGSTFKIYAMGWYRQAPGKERELVAVITSGGRTNYADSGKGRFTISRDNAKNTVYLQMNSLKPEDTAVYYCARGRSIHSSNRLEYWGQGTQVTVSS", "polyreactivity (PSR sort gate)": "high polyreactivity"}

----------
assay: yeast display, Sf9 membrane polyspecificity reagent, FACS + sequencing; frameworks hold sequencing errors
MEASURED_PARAMETER: polyreactivity (PSR sort gate)

{"CONSTRUCT_SEQUENCE": "QVQLVESGGGLVQAGGSLRLSCAASGSTFVVNAMGWYSQAPGKERELVAAIDGSDGSTYYADSVKGRFTISRDNAKNTVYLQMNSLKPEDTAVYYCAAEVLGRPDVENDYWGQGTHVTVSS", "polyreactivity (PSR sort gate)": "low polyreactivity"}
{"CONSTRUCT_SEQUENCE": "QVQLGESGGGLVQAGGSLRLSCAASGRTFHGYAMGWYRQAPGKERELVARINWSDGRTYYADSVKGRFTISRDNAKNTVYLQMNSLKPEDTAVYYCAADKTVSYAPAWYYYWGQGTQVTVSS", "polyreactivity (PSR sort gate)": "low polyreactivity"}
{"CONSTRUCT_SEQUENCE": "QVQLVESGRGLVQAGGSLRLSCAASGRTFYGYARGCYRQAPGKERELVARISSGGGTYYADSVKGRFIISRDNAKYTVYLQMNSLKPEDTAVYYCNAEVYRWSGSYTGWDSWHDDWGQGTQVTVSS", "polyreactivity (PSR sort gate)": "low polyreactivity"}
{"CONSTRUCT_SEQUENCE": "QVQLVESGGGLVQAGGSLRLICAASGRTFEDNAMGWYRQAPGKERELVAAISSDGSRNYADSVKGRFTISRDNAKNTVYLQMNSLKPEDTAVYYCNATVYWPYDWGTSDYWGQGTQVTVSS", "polyreactivity (PSR sort gate)": "low polyreactivity"}
{"CONSTRUCT_SEQUENCE": "QVQLVESGGGLVQAGGSLRLSCAASGFTFYSNSMGWYRQAPGKERELVAAISSGGGTTYYADSVKGRFTISRDNAKNTVYLQMNSLKPEYTAVYYCAAGLSFFRSYSGFYYWGQGTQVTVSS", "polyreactivity (PSR sort gate)": "low polyreactivity"}

I am curious: what polyreactivity (PSR sort gate) value has been reported for `QVQLVESGGGLVQAGGSLRLSCAASGSTFDSYAMGWSRQAPGKERELVAAISYSGGSTYYADSVKGRFTISRDNAKNTVYLQMNRLKPEDTAVYYCAASSYNHKRYPSPYDYWGQGTQVTVSS` ?
high polyreactivity

I am curious: what polyreactivity (PSR sort gate) value has been reported for `QVQLVESGGGLVQAGGSLRLSCAASGFTFARYAMGWYRQAPGKERELVAAISSRGGRTYYADSVKGRFTISRDNAKNTVYLQMNSLKPEDTAVYYCNAGYAHTYDYWGQGTQVTVSS` ?
high polyreactivity

I am curious: what polyreactivity (PSR sort gate) value has been reported for `QVQLVESGGGLVHAGGSLRLSCAASGFTFGTYAMGWYRQAPGKEMELVSAISWKGGSTFYADSVKGRFTISRDNAKNTVYLQMNSLKPEDTAVYYCSKLLRRGGHRVFTYDYWGQGTQVTVSS` ?
high polyreactivity

I am curious: what polyreactivity (PSR sort gate) value has been reported for `QVQLVESGGGLVQAGGSLRLSCAASGSTFGIYAMGWYRPAPGKDREMVAAISSGVDTYYADSVKGRVTISRDNAKNTVDIQMNSLKPEDPAVYYCAADQFQGNSGFEYWGQGTQVTVSS` ?
low polyreactivity

I am curious: what polyreactivity (PSR sort gate) value has been reported for `QVQLVESGVGLVQAGGSLRLSCAASGSILSGYAMGWYRQAPGKERELVAAINDGGGTNYADSVKGRFTISRDNAKNTVYLQMNSLKPEDTAVYYCNKVYYFQRRLTPVYLMDYWGQGTQVTVSS` ?
low polyreactivity

I am curious: what polyreactivity (PSR sort gate) value has been reported for `QVQLVESGGGLVQAGGSLRLSCAASGSIFFSNAMGWYRQAPGKERELVAAITSTGGSTYYADSVKGRFTISRDNAKNTVYLQMNSLKPEDTAVYYCAAASRRGYYYWGQGTQVTVSS` ?
high polyreactivity

I am curious: what polyreactivity (PSR sort gate) value has been reported for `QVQLVESGGGLVQAGGSLRLSCAASGFTFYRNTMGWYRQAPGKERELVATITFSGTRTYYADSVKGRFTISRDNAKNTVYLQMNSLKPEDTAVYYCAADRPRRTKWGGGGYYWGQGTQVTVSS` ?
high polyreactivity

I am curious: what polyreactivity (PSR sort gate) value has been reported for `QVQLVESGGGLVQAGGSLRLSCAASGSTFRLYPMGWYRQAPGKERELVAAISRSGGSTYYADSVKGRFTISRDNAKNTVYLQMNRLKPEDTAVYYCAKRRPLYAHPDDYWGQGTQVTVSS` ?
low polyreactivity

I am curious: what polyreactivity (PSR sort gate) value has been reported for `QVQLVESGGGLVQEGGSLRLSCAASGIIFLWYTMGWYRQAPGKERELVATISWAGGSTYADSVKGRFTISRDNAKNTVYLPMNSLKPEDTAVYYCNTEIYVDIISDYGYWGQGTQVTVSS` ?
low polyreactivity
